Please respond with reported TGI for every item in the list.
Tested on: HOP-92 NSCLC
Assay: NCI tumour cell line growth inhibition, 48 h
Your answer is read as µM, so omit the unit and give the number.

IN: Any idea what TGI was measured for "N#CCCOCN(CO)c1nc(N(CO)COCCC#N)nc(N(CO)COCCC#N)n1" ?
OUT: 45.8

IN: Which value of TGI has been reported for CCC[CH2][Sn]1([CH2]CCC)[O]CC(CN2CCOCC2)[O]1 (configuration not stated) in the records?
OUT: 14

IN: Would you mind telling me what TGI value was observed for "Nc1ccc(-c2nc3ccccc3o2)cc1S" ?
OUT: 42.3

IN: Record request: TGI value, item "COc1cc(Nc2nc3cc(C(F)(F)F)ccc3nc2-c2ccccc2)cc(OC)c1OC"
OUT: 20.7

IN: So what does the record say about TGI for "O=C1CC[C@H](c2ccc(O)c3c2C(=O)[C@@H]2O[C@@H]2C3=O)c2cccc(O)c21" ?
OUT: 5.12

IN: Fill blank: measured TGI of the compound "O=C(CN1C(=O)S/C(=C\C(Cl)=C\c2ccccc2)C1=O)NCCc1ccc(O)cc1" is ____.
OUT: 5.05

IN: Item under review: "Cc1c2cc[n+](C)cc2c(C)c2c1[nH]c1ccc(Cl)cc12" . Reported TGI?
OUT: 26.5

###

I'd appreciate it if you could supply TGI values for the items below.
Tested on: CAKI-1 renal
Assay: NCI tumour cell line growth inhibition, 48 h

IN: # value lookup — system CAKI-1 renal, readout TGI, item "O=C(O)CP(=O)(O)O"
OUT: > 100 µM

IN: For CAKI-1 renal, provide TGI of "CS(=O)(=O)c1ccc(Oc2cc(F)cc(C#N)c2)c2c1[C@H](O)C(F)(F)C2" please.
OUT: > 100 µM

IN: What is its TGI for CAKI-1 renal? Entry: "Brc1ccccc1C=NC12CC3CC(CC(C3)C1)C2"
OUT: > 100 µM

IN: Query the reported TGI for CAKI-1 renal; item: COc1cc(C2S/C(=C/c3ccccc3)C(=O)N2c2cc(Cl)c(Cl)cc2Cl)cc(OC)c1OC (stereo unspecified)
OUT: > 87.1 µM

IN: What TGI appears in the records for this compound with CAKI-1 renal? CCC(c1ccc2cc(O)ccc2c1)C(C)(C)C(=O)O (stereo unspecified)
OUT: > 100 µM

IN: For CAKI-1 renal, provide TGI of "COc1ccc2oc(=O)c(-c3nc4ccccc4o3)cc2c1" please.
OUT: > 100 µM

###

Tested on: SF-539 CNS
Test: NCI tumour cell line growth inhibition, 48 h
Outcome Measure: TGI

IN: Given the compound "CC(C)[Si](OC1=C(C(=O)N(C)c2ccccc2Cl)CCCCC1)(C(C)C)C(C)C" , what is its reported TGI?
OUT: > 100 µM

IN: Quick check: TGI of "COc1ccc(C(=O)CC(=O)C(=O)Nc2ccc(C)c(C)c2)cc1" ?
OUT: > 100 µM

IN: Sample "O=C(Nc1sccc1S(=O)(=O)c1ccc(Cl)cc1)c1ccccc1" — what was its TGI?
OUT: > 100 µM

IN: For the compound shown here, "NC(=O)Nc1c([N+](=O)[O-])cc(C(F)(F)F)cc1[N+](=O)[O-]" , give the reported TGI.
OUT: > 100 µM

IN: Which TGI value is on record for "CCCC(=O)Nc1ccc2c(c1)CN1C(=O)c3ccccc3C1=N2" ?
OUT: > 100 µM

IN: Which TGI value is on record for "CC(C)n1c(=O)[nH]n(-c2ccccc2)c1=O" ?
OUT: > 100 µM

IN: Report TGI for "Cc1sc(NC2=NC(=O)/C(=C\c3ccccc3)S2)nc1-c1nc(NC2=NC(=O)/C(=C\c3ccccc3)S2)sc1C" please.
OUT: > 34.1 µM

IN: If you can, please state the reported TGI value of "C=C(C)[C@@H]1CCC2=C[C@H](OC2=O)[C@@]2(C)C[C@@H]2C(=O)/C=C(/C)C(=O)[C@H]1OC(C)=O" .
OUT: > 33.7 µM

IN: Query: TGI; subject: "O=C(O)CP(=O)(O)O"
OUT: > 100 µM

###

Test system: NCI-H226 lung
Test: NCI tumour cell line growth inhibition, 48 h
Outcome Measure: TGI

IN: What TGI value was documented for this compound, "O=[N+]([O-])c1cc(-c2nnc(C34CC5CC(CC(C5)C3)C4)o2)cc([N+](=O)[O-])c1" ?
OUT: > 100 µM

IN: What TGI value was documented for this compound, "CCOC(=O)c1c(-c2ccccc2)nc2c(OC)nccn12" ?
OUT: > 100 µM

IN: State the recorded TGI for this entry: CCC1c2[nH]c3ccccc3c2C[C@H]2C(=O)N3CCC[C@H]3C(=O)N12 (stereo partly drawn)
OUT: > 100 µM

###

Test system: MALME-3M melanoma
Assay: NCI tumour cell line growth inhibition, 48 h
Would you kindly list TGI for each of these compounds?

IN: Give its TGI value. Item: "COc1ccc(-c2nn(-c3cccc(NC(=O)c4cccc(C(F)(F)F)c4)c3)cc2-c2ccncc2)cc1Cl"
OUT: > 100 µM

IN: Given the entry "O=C(O)c1ccccc1-c1ccccc1C(=O)Nc1ccc2c(c1)[nH]c(=O)c1ccccc12" , report its measured TGI.
OUT: > 100 µM

IN: Name the reported TGI value associated with the compound "Cc1cc2cc3cc(C)c(N)cc3[n+](C)c2cc1N"
OUT: 6.86 µM

IN: Record request: TGI value, item "C(=NCCCN1CCN(CCCN=Cc2cccc3ccccc23)CC1)c1cccc2ccccc12"
OUT: > 100 µM

IN: Quick one: TGI of O=NN/C(=C1\Nc2ccc([N+](=O)[O-])cc2NC1=O)C(O)c1ccc([N+](=O)[O-])cc1 (configuration not stated) ?
OUT: > 100 µM

IN: Form field: reported TGI of "COc1ccc2oc(=O)c(-c3nc4ccccc4o3)cc2c1"
OUT: > 100 µM

IN: Please give the measured TGI for this compound: Clc1ccc(C2=C(c3ccccc3)C(c3ccc(Cl)cc3)N3C(=N[C@H]4CCCC[C@@H]43)N2)cc1 (some centres not stated)
OUT: 34.8 µM

IN: If you can, please state the reported TGI value of "Cc1ccc(-c2nc(N)c(C#N)c3c2CCOc2c-3ccc3ccccc23)cc1" .
OUT: 7.89 µM

IN: Any idea what its TGI is? The compound is "CCn1c(-c2nonc2N)nc2cncc(C(=O)NCCNC)c21"
OUT: > 25 µM

IN: Request the reported TGI associated with "NC(=NCCN1CCCCCCC1)NO"
OUT: > 100 µM

IN: Item "CCOC(=O)N1CCN(c2nc(C)n(-c3ccccc3)c(=S)c2C#N)CC1" has what recorded TGI?
OUT: > 100 µM

IN: Quick one: TGI for CC(C)(C)OC(=O)CC(NC(=O)OC(C)(C)C)C(=O)NC(C(=O)O)C(O)c1ccccc1 (configuration not stated) ?
OUT: > 100 µM

IN: Param item = Cc1cn([C@H]2C[C@@H]3[C@@H](COC(CCl)N3O)O2)c(=O)[nH]c1=O (some centres not stated) ; retrieve measured TGI.
OUT: > 100 µM

IN: For the compound "CN=C(N)/N=C(\N)Nc1cc2ccccc2c2ccccc12" , what TGI is on record?
OUT: 29.3 µM

IN: Reported TGI, compound Nc1ncnc2c1ncn2C1C=CC(COS(N)(=O)=O)C1 (configuration not stated) : ____
OUT: > 100 µM

IN: # TGI lookup, item "CC(C)n1c(=O)[nH]n(-c2ccccc2)c1=O"
OUT: > 100 µM

IN: What value of TGI has been recorded for this entry: CCCCCCCCCCCCCCCCCC(=O)OCC(C[As](=O)(O)O)OC(=O)CCCCCCCCCCCCCCCCC (configuration not stated)
OUT: > 100 µM

IN: Recorded TGI of "O=C1OC(c2ccccc2)=N/C1=C\c1cc(Cl)ccc1Cl" , please.
OUT: > 100 µM

IN: Field request: TGI | item: "COc1ccccc1/C=C/c1c(N)ncnc1Nc1cccc(Cl)c1"
OUT: 59.7 µM

IN: Which TGI reading was recorded for the compound "COc1ccc2cc(Cn3cc[n+](Cc4ccc5ccccc5c4)c3)ccc2c1" ?
OUT: 4.03 µM

IN: Name the recorded TGI for CNC(=O)C1CCCN1C(=O)C(Cc1cnc[nH]1)NC(=O)C1CCC(=O)N1 (configuration not stated) .
OUT: > 100 µM

IN: Sample "C/C=N\n1c(C)c(C#N)c(C#N)c1N" — what was its TGI?
OUT: > 100 µM

IN: Which TGI value belongs to "CCOC(=O)C(C(=O)OCC)=C1N[C@H](C(=O)OCC)CS1" ?
OUT: > 100 µM

IN: Tell me the measured TGI of "CS(=O)(=O)c1ccc(Oc2cc(F)cc(C#N)c2)c2c1[C@H](O)C(F)(F)C2" , please.
OUT: > 100 µM

IN: Would you kindly share the measured TGI for "Cc1c(-c2nnc(-c3ccc(F)cc3)o2)nnn1-c1ccnc2c(C(F)(F)F)cccc12" ?
OUT: > 100 µM

IN: Would you kindly share the measured TGI for O=C1C2=Cc3ccccc3OC2(O)Oc2ccc(O)cc21 (configuration not stated) ?
OUT: > 100 µM

IN: Bench note: what TGI did "O=[N+]([O-])C(=C(N1CCCCC1)N1CCCCC1)/C(Cl)=C(\Cl)[N+](=O)[O-]" show?
OUT: 6.28 µM
